Tested on: CP237
Test: qHTS profiling for inhibitors of Plasmodium falciparum proliferation (AID 504749); also: nearly all actives have a fitted effect of over 60% in size
Conditions: P. falciparum in erythrocytes, SYBR Green DNA, 72 h; series mostly up to 28.7 µM
Records with an inconclusive call do not appear. Active and inactive are the calls of the source. Calls follow the shape of the dose curve; as a rule, active = well fitted inhibition curve with a large enough effect; inconclusive = small, poorly fitted or top-dose-only effect; inactive = flat fitted curve, though single readings scatter.
The categories you may choose from are active, inactive

The examples below pair each entry with its known result.
{"columns": ["molecule", "target or system", "answer label"],
 "data": [
  ["CC1CCC(C(C)C)C(OC(=O)c2ccccc2O)C1 (stereo not given)", "CP237", "inactive"],
  ["NC1=NC(S)C2N=CN=C2N1 (stereo not given)", "CP237", "inactive"],
  ["CC(=O)OC1CC2CCC1(C)C2(C)C (stereo not given)", "CP237", "inactive"],
  ["CC(C)CN(C[C@@H](OP(=O)(O)O)[C@H](Cc1ccccc1)NC(=O)O[C@@H]1CCOC1)S(=O)(=O)c1ccc(N)cc1", "CP237", "inactive"],
  ["CCC(C)n1ncn(-c2ccc(N3CCN(c4ccc(OCC5COC(Cn6cncn6)(c6ccc(Cl)cc6Cl)O5)cc4)CC3)cc2)c1=O (stereo not given)", "CP237", "active"]
]}

Here is another molecule to look at.
Per the assay record, what outcome was assigned to C=C[C@]1(C)C[C@@H](OC(=O)CSCCN(CC)CC)[C@]2(C)C(C)CC[C@]3(CCC(=O)[C@H]32)[C@@H](C)[C@@H]1O (stereo not given in full) ?
active

----------
Biological target: Rap guanine nucleotide exchange factor 3 (Homo sapiens) (UniProt O95398)
Sequence (O95398 whole entry, looked up): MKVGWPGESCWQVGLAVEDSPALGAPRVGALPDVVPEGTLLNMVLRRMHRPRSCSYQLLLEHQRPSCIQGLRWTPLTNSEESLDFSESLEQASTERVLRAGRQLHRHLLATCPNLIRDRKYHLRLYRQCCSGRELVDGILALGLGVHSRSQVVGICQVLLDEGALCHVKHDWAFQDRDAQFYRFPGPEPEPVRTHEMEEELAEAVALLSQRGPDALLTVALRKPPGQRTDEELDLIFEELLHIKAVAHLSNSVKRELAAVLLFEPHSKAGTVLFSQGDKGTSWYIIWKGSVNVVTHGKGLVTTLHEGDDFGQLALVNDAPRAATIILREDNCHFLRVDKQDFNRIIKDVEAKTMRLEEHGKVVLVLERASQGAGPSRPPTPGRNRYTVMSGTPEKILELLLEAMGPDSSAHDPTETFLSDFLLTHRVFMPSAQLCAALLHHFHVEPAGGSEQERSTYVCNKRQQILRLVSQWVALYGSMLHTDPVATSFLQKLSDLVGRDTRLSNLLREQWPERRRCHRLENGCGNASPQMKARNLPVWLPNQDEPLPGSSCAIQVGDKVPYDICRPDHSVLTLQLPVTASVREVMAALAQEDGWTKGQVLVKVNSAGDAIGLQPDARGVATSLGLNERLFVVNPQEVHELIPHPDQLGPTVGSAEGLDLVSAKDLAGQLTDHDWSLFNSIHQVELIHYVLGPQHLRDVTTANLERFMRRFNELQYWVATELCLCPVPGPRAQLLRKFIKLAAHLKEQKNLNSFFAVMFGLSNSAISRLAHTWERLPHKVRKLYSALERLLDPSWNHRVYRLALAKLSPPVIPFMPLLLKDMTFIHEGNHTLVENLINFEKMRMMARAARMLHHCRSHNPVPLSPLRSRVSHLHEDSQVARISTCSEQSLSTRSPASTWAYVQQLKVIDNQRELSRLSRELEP
Experiment: Confirmatory qHTS for agonist of cAMP-regulated guanine nucleotide exchange factor 3 (EPAC1) (AID 1645881); also: nearly all actives have a fitted effect of over 75% in size; also: potency is read from the fitted curve at half-maximal effect;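 as to activation: EPAC1 catalysed release of BODIPY-GDP from Rap1B seen as fluorescence loss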
Settings: EPAC1 Rap1B BODIPY-GDP exchange fluorescence; series mostly up to 154 µM
Records with an inconclusive call do not appear. Activity calls are given as the source filed them. Calls follow the shape of the dose curve; as a rule, active = well fitted activation curve with a large enough effect; inconclusive = small, poorly fitted or top-dose-only effect; inactive = no such curve, though single readings can be large or run the other way.
assay readout: Potency

{"columns": ["compound", "assay readout", "obs value"],
 "data": [
  ["CC(=O)Nc1ccc(N2C(=O)c3cccc4c(O)ccc(c34)C2=O)cc1", "Potency", "79.4 µM (active)"],
  ["Oc1ccc2ccc3cccc[n+]3c2c1", "Potency", "112 µM (active)"],
  ["C[C@H](CO)N1C[C@H](C)[C@H](CN(C)Cc2cccc(O)c2)OCc2ccccc2-c2c(n(C)c3ccccc23)C1=O", "Potency", "inactive"],
  ["Cc1cccc(NC(=O)CC2C(=O)OCCN2Cc2ccccc2)c1 (stereo not given)", "Potency", "inactive"]
]}

Shifting focus to the compound that follows.
Provide Potency, tested on Rap guanine nucleotide exchange factor 3 (Homo sapiens) (UniProt O95398), for `Cc1ccc(N=C2NC(=O)/C(=C/C=C/c3ccco3)S2)cc1C` .
inactive

----------
Test system: CP194
Experiment: qHTS profiling for inhibitors of Plasmodium falciparum proliferation (AID 504749); also: nearly all actives have a fitted effect of over 60% in size
Details: P. falciparum in erythrocytes, SYBR Green DNA, 72 h; series mostly up to 28.7 µM
Results filed as inconclusive are left out. The source made the active and inactive calls. The call rests on the fitted dose curve; in most records, active means well fitted inhibition curve with a large enough effect; inconclusive means small, poorly fitted or top-dose-only effect; inactive means flat fitted curve, though single readings scatter.
The categories you may choose from are active, inactive

The examples below pair each entry with its known result.
{"columns": ["molecule", "answer label"],
 "data": [
  ["CCN1/C(=C/C=C/C=C/c2sc3ccccc3[n+]2CC)Sc2ccccc21", "active"],
  ["CC(C)CN(C[C@@H](OP(=O)(O)O)[C@H](Cc1ccccc1)NC(=O)O[C@@H]1CCOC1)S(=O)(=O)c1ccc(N)cc1", "inactive"],
  ["CO/N=C(/C(=O)N[C@@H]1C(=O)N2C(C(=O)O)=CCS[C@H]12)c1csc(N)n1", "inactive"],
  ["CCC(C)n1ncn(-c2ccc(N3CCN(c4ccc(OCC5COC(Cn6cncn6)(c6ccc(Cl)cc6Cl)O5)cc4)CC3)cc2)c1=O (stereo unspecified)", "inactive"],
  ["CC(=O)OC1CC2CCC1(C)C2(C)C (stereo unspecified)", "inactive"]
]}

Here is another molecule to look at.
Per the assay record, what outcome was assigned to CCC(=O)O[C@@H](OP(=O)(CCCCc1ccccc1)CC(=O)N1C[C@H](C2CCCCC2)C[C@H]1C(=O)O)C(C)C (stereo partly specified) ?
inactive

// data source = PubChem BioAssay (NCATS)
